Values compiled from patent US20120323164A1.

settings: time 8 h; Pc 4 in toluene ~9 μM, alkene 1:1000 mole ratio, white light 1.2 kJ/s/m^2
reported-endpoint: decomp (%) of Pc 4
Report as a plain number; the unit % is understood.

Query: decomp (%) of Pc 4; subject: CC(C)=CCC/C(C)=C/CC/C(C)=C/CO [farnesol]
99

Thanks! And CC(C)=CCC/C(C)=C/CO [geraniol] ?
99

For CCCCC/C=C\C/C=C\CCCCCCCC(=O)O [linoleic acid] then?
99

Same for CC(C)=CCC/C(C)=C/CC/C(C)=C/CC/C=C(\C)CC/C=C(\C)CCC=C(C)C [squalene]
96

Param item: C1=C\CC/C=C\CC/1 [1,5-cyclooctadiene]
83
